# assayNotes: OD615 S. cerevisiae growth inhibition, permissive medium, pilot counter-assay, permissive growth control for S. cerevisiae lifespan shortening project (AID 705)
# assayContext: OD615, 24 h, at 10 µM, hits give high values
measurementKind: growth inhibition (%)
Answers are plain numbers, in %.

Answered cases to consult:
compound	growth inhibition, %
Nn1c(SCC(=O)NC2CCCCC2)nnc1-c1ccccc1	-25.7
Cc1ccsc1C1C2=C(CC(C)(C)CC2=O)Nc2ncnn21 (stereo unspecified)	-13.7
CC(C)Sc1nc(SCC(=O)NCc2ccco2)c2c3c(sc2n1)COC(C)(C)C3	-10.2
COc1ccc(S(=O)(=O)Cc2ccc(C(=O)N3CCCC3)o2)cc1	5.75
CCn1c2ccccc2c2cc(NC(=O)c3ccco3)ccc21	-4.29
CCc1ccc(NC(=O)CSc2nc3c(c(=O)n(C)c(=O)n3C)n2C)cc1	3.77

Report growth inhibition for each item below.
1. Cc1ccc(OCC(O)CN2CCN(CC(O)COc3ccc(C)cc3Cl)CC2)c(Cl)c1 (stereo unspecified)
2. CCn1cc(C(=O)NC2CCCCCC2)c2cc(OC)c(OC)cc2c1=O
3. COc1ccc(Cl)cc1C(=O)Nc1cc(=O)n(C)c(=O)n1C
4. CC1CCN(c2nc3c(c(=O)[nH]c(=O)n3C)n2Cc2ccccc2Cl)CC1
5. Cc1nn(C)c(C)c1S(=O)(=O)N(CC(=O)Nc1ccccn1)c1ccc(C(C)C)cc1

1. -5.18
2. -29.2
3. -16.1
4. -10.2
5. -2.97

====

# assayNotes: viability gain of MRP-1-high H69AR cells under doxorubicin, pilot screen, MRP-1 activator project, CellTiter-Glo, duplicate (AID 807);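 further: compound pretreatment 18-22 h then 72 h combined with doxorubicin; 0% = doxorubicin alone and 100% = vehicle without doxorubicin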
# assayContext: H69AR viability with doxorubicin, CellTiter-Glo luminescence; at 10 µM; hits give high values
measurementKind: viability increase (%)
Give bare numbers, in %.

compound	measurementKind	measuredValue
COc1cc(-c2nc3cnccn3c2Nc2ccc3c(c2)OCCO3)ccc1O	viability increase	-7.25
CCOc1ccccc1NC(=O)CSc1ccccc1	viability increase	-2.94
COc1ccc(C(=O)Nc2cc3c(cc2C#N)OCO3)cc1S(=O)(=O)N1CCN(C)CC1	viability increase	1.53
O=C(Nc1ccc(Cl)cc1)N(Cc1cccs1)Cc1cccs1	viability increase	-0.55
Cc1cccn2c(=O)c(C=NCc3ccco3)c(Nc3ccc(Cl)cc3)nc12	viability increase	-6.81

Provide viability increase for all items below, preserving their order.
1. COc1ccc(S(=O)(=O)Cc2ccc(C(=O)NCc3ccco3)o2)cc1
2. Cc1ccccc1-c1noc(-c2cccs2)n1
3. COc1ccc(OC)c(N(CC(=O)Nc2ccc3c(c2)OCO3)S(=O)(=O)c2ccccc2)c1
4. COC(=O)CCC(=O)Oc1ccc(OC(=O)CCC(=O)OC)cc1

[-4.28, -4.68, -2.35, -4.94]

Here are 5 compounds. What values of viability increase were reported for them?
1. CCOC(=O)COc1cc2c(C(=O)OCC)c(C)oc2cc1Br
2. CCSc1nnc(NC(=O)CSc2nc3c(c(=O)n2CCOC)SC(C)C3)s1 (stereo not drawn)
3. CC(C)C(NC(=O)C12CC3CC(CC(C3)C1)C2)C(=O)NC1=NCCS1 (stereo not drawn)
4. Cc1ccc(C(=O)Nc2nc3ccccc3n2CCN2CCCC2)cc1
5. CCS(=O)(=O)Nc1ccc(-c2ccc(NS(=O)(=O)CC)c(OC)c2)cc1OC

1: -2.07; 2: -2.95; 3: -3.97; 4: -5.99; 5: -3.7

Give me viability increase for each of these compounds, listed below.
1. O=C(C1=C(O)C(=O)N(c2ncccn2)C1c1cccs1)c1ccco1 (stereo not drawn)
2. C=C(C)CSC1=C(C#N)C(c2ccccc2)CC(=O)N1 (stereo not drawn)
3. COc1cc(OC)cc(C(=O)NCC2CCCO2)c1 (stereo not drawn)
4. Cc1cccc(N(C)S(=O)(=O)c2cccc3nsnc23)c1
5. Cc1ccc(-n2nnc3c(=O)n(CC(=O)NCc4ccco4)cnc32)cc1

[-4.29, -2.09, -1.51, -4.32, -4.35]

# batch size: 4; output viability increase per entry
1. COc1ccc(NS(=O)(=O)c2cccc(-c3nnc4n3CCCCC4)c2)cc1
2. COc1cccc(C2CC(c3cccc(C)c3)n3ncnc3N2)c1 (stereo not drawn)
3. CCCCCn1c(SCCOCC)nc2c1c(=O)[nH]c(=O)n2C
4. N#CN=C1SCCS1

-3.38
-2.07
-0.61
-0.61
